assay: Single-dose pharmacokinetics in SD rats; type: in vivo; details: Sprague-Dawley, rat, plasma, im, combined (GC376 55.5 + GS441524 33.5 mg/kg), plasma
Experimental Endpoint: half-life (h)
Quick reminder: number only, in h, skip the unit.

input: Dear colleague, I am looking for the recorded half-life of the following compound: CC(C)CC(NC(=O)OCc1ccccc1)C(=O)NC(CC1CCNC1=O)C(O)S(=O)(=O)O (stereo not shown) [GC376]
output: 2.75

* * *

assay: Single-dose pharmacokinetics in BALB/c mice; assay type: in vivo; details: BALB/c, mouse, plasma, im, BALB/c mice, alone (GC376 111 mg/kg; GS441524 67 mg/kg)
Would you kindly list Vd/F for each of these compounds?
Provide the reading as a plain figure in L/kg.

input: Query: Vd/F; subject: `N#C[C@@]1(c2ccc3c(N)ncnn23)O[C@H](CO)[C@@H](O)[C@H]1O`
output: 1.37

input: Same question for CC(C)CC(NC(=O)OCc1ccccc1)C(=O)NC(CC1CCNC1=O)C(O)S(=O)(=O)O (centres unmarked) please.
output: 2.87

* * *

test: Single-dose pharmacokinetics in BALB/c mice; type: in vivo; settings: BALB/c, mouse, plasma, im, 33.5 mg/kg, BALB/c mice, i.m., combined (GC376 55.5 + GS441524 33.5 mg/kg), plasma; read-out: MRT0−t
Experimental Endpoint: MRT last (h)
Answer with a number only, understood to be in h.

input: Any idea what its MRT last is? The compound is `N#C[C@@]1(c2ccc3c(N)ncnn23)O[C@H](CO)[C@@H](O)[C@H]1O`
output: 2.37

* * *

test: Single-dose pharmacokinetics in SD rats; format: in vivo; conditions: Sprague-Dawley, rat, plasma, im, combined (GC376 55.5 + GS441524 33.5 mg/kg), plasma
Experimental Endpoint: Cmax (ng/mL)
Dear colleague, please return just the value in ng/mL, with no unit written.

input: Entry under review: CC(C)CC(NC(=O)OCc1ccccc1)C(=O)NC(CC1CCNC1=O)C(O)S(=O)(=O)O (stereo not shown) [GC376] . Reported Cmax?
output: 11800

* * *

For each record, write down the corresponding half-life.
experiment: Single-dose pharmacokinetics in BALB/c mice; format: in vivo; details: BALB/c, mouse, plasma, im, BALB/c mice, alone (GC376 111 mg/kg; GS441524 67 mg/kg)
Numbers only; they are read as h.

input: What does the record list as half-life for CC(C)CC(NC(=O)OCc1ccccc1)C(=O)NC(CC1CCNC1=O)C(O)S(=O)(=O)O (centres unmarked) [GC376] ?
output: 1.12

input: What about N#C[C@@]1(c2ccc3c(N)ncnn23)O[C@H](CO)[C@@H](O)[C@H]1O [GS441524] ?
output: 1.51

* * *

assay: Single-dose pharmacokinetics in BALB/c mice; type: in vivo; conditions: BALB/c, mouse, plasma, (GC376 55.5 + GS441524 33.5 mg/kg), plasma
Experimental Endpoint: half-life
# output: number + unit

input: Look up half-life: CC(C)CC(NC(=O)OCc1ccccc1)C(=O)NC(CC1CCNC1=O)C(O)S(=O)(=O)O (stereo not shown)
output: 48.6 min

* * *

assay: Single-dose pharmacokinetics in SD rats; type: in vivo; conditions: Sprague-Dawley, rat, plasma, im, alone (GC376 111 mg/kg; GS441524 67 mg/kg)
Field: half-life. Provide a value for each of the compounds that follow.

input: So what does the record say about half-life for `N#C[C@@]1(c2ccc3c(N)ncnn23)O[C@H](CO)[C@@H](O)[C@H]1O` ?
output: 3.8 h

input: Repeat with CC(C)CC(NC(=O)OCc1ccccc1)C(=O)NC(CC1CCNC1=O)C(O)S(=O)(=O)O (centres unmarked)
output: 3.87 h
